# assayNotes: Light absorption maxima and molar extinction coefficients
# Type: physicochemical
Kindly supply the reported ε (molar extinction coefficient) values for the records listed here.
Could you give me the number in M⁻¹ cm⁻¹? Just the number is fine.

Requested read-out: ε (molar extinction coefficient). Entry: O=C(O)c1cccnc1.O=C(O)c1cccnc1.c1cnc2c(n1)C1=NC2=Nc2c3nccnc3c3[n]2[Ru][n]2c(c4nccnc4c2=NC2=NC(=N3)c3nccnc32)=N1 45100

Requested read-out: ε (molar extinction coefficient). Entry: O=S(=O)([O-])c1cccc(P(c2ccccc2)c2ccccc2)c1.O=S(=O)([O-])c1cccc(P(c2ccccc2)c2ccccc2)c1.[K+].[K+].c1ccc2c(c1)C1=NC3=NC(=Nc4c5ccccc5c5[n]4[Ru][n]4c(c6ccccc6c4=N5)=NC2=N1)c1ccccc13 90300

Requested read-out: ε (molar extinction coefficient). Entry: O.O.O.O.O=S(=O)([O-])CCc1cc[n+]([Ru-2]2([n+]3ccc(CCS(=O)(=O)[O-])cc3)[n]3c4c5ccccc5c3N=C3N=C(N=c5c6ccccc6c([n]52)=NC2=NC(=N4)c4ccccc42)c2ccccc23)cc1.[K+].[K+] [RuPc(PES)2 (Ex 2)] 72500

Requested read-out: ε (molar extinction coefficient). Entry: Nc1ccc(O)c(C(=O)O)c1.Nc1ccc(O)c(C(=O)O)c1.c1ccc2c(c1)C1=NC3=NC(=Nc4c5ccccc5c5[n]4[Ru][n]4c(c6ccccc6c4=N5)=NC2=N1)c1ccccc13 66500

* * *

# Tested on: Adherent cells (HeLa RCA. SKOV OVCAR)
# assayNotes: Phototoxicity (Light): 3H-thymidine incorporation in adherent cells after irradiation, with dark cytotoxicity for PI
# Format: cell-based
# measurementParameters: ratio of PC50 to cytotoxic concentration 50% (no light)
Kindly supply the reported PI (phototoxicity index) values for the records listed here.
Respond using a number only.

Give PI (phototoxicity index) (Adherent cells (HeLa RCA. SKOV OVCAR)) of the following molecule: O=S(=O)([O-])c1cccc(P(c2ccccc2)c2ccccc2)c1.O=S(=O)([O-])c1cccc(P(c2ccccc2)c2ccccc2)c1.[K+].[K+].c1ccc2cc3c(cc2c1)C1=NC2=NC(=Nc4c5cc6ccccc6cc5c5[n]4[Ru][n]4c(c6cc7ccccc7cc6c4=N5)=NC3=N1)c1cc3ccccc3cc12 [RuNc(TPPMS)2] 1.6

Give PI (phototoxicity index) (Adherent cells (HeLa RCA. SKOV OVCAR)) of the following molecule: Nc1cccc(C(=O)O)c1.Nc1cccc(C(=O)O)c1.c1ccc2c(c1)C1=NC3=NC(=Nc4c5ccccc5c5[n]4[Ru][n]4c(c6ccccc6c4=N5)=NC2=N1)c1ccccc13 [RuPc(ABA)2] 8.8

Give PI (phototoxicity index) (Adherent cells (HeLa RCA. SKOV OVCAR)) of the following molecule: O=S(=O)([O-])c1ccc[n+]([Ru-2]2([n+]3cccc(S(=O)(=O)[O-])c3)[n]3c4c5cc6ccccc6cc5c3N=C3N=C(N=c5c6cc7ccccc7cc6c([n]52)=NC2=NC(=N4)c4cc5ccccc5cc42)c2cc4ccccc4cc23)c1.[Na+].[Na+] [RuNc(3PS)2] 32.6

Give PI (phototoxicity index) (Adherent cells (HeLa RCA. SKOV OVCAR)) of the following molecule: N#Cc1cccc(C(=O)O)c1.N#Cc1cccc(C(=O)O)c1.c1ccc2c(c1)C1=NC3=NC(=Nc4c5ccccc5c5[n]4[Ru][n]4c(c6ccccc6c4=N5)=NC2=N1)c1ccccc13 [RuPc(CBA)2] 10.2

Give PI (phototoxicity index) (Adherent cells (HeLa RCA. SKOV OVCAR)) of the following molecule: NCCC(=O)[O-].NCCC(=O)[O-].[K+].[K+].c1ccc2cc3c(cc2c1)C1=NC2=NC(=Nc4c5cc6ccccc6cc5c5[n]4[Ru][n]4c(c6cc7ccccc7cc6c4=N5)=NC3=N1)c1cc3ccccc3cc12 [RuNc(β-ALA)2] 1.51

Give PI (phototoxicity index) (Adherent cells (HeLa RCA. SKOV OVCAR)) of the following molecule: Cc1cc2c(cc1C)C1=Nc3c4cc(C)c(C)cc4c4[n]3[Ru][n]3c(c5cc(C)c(C)cc5c3=NC3=NC(=N4)c4cc(C)c(C)cc43)=NC2=N1.O=C(O)c1cncc(C(=O)O)c1.O=C(O)c1cncc(C(=O)O)c1 [Ru(oMe)8 Pc(35PDCA2)] 1

Give PI (phototoxicity index) (Adherent cells (HeLa RCA. SKOV OVCAR)) of the following molecule: O=C(O)c1cccnc1.O=C(O)c1cccnc1.c1cnc2c(n1)C1=NC2=Nc2c3nccnc3c3[n]2[Ru][n]2c(c4nccnc4c2=NC2=NC(=N3)c3nccnc32)=N1 [RupyrPc(Nic)2] 1

Give PI (phototoxicity index) (Adherent cells (HeLa RCA. SKOV OVCAR)) of the following molecule: O=C(O)c1cccnc1.O=C(O)c1cccnc1.c1ccc2cc3c(cc2c1)C1=NC3=Nc2c3cc4ccccc4cc3c3[n]2[Ru][n]2c(c4cc5ccccc5cc4c2=NC2=NC(=N3)c3cc4ccccc4cc32)=N1 [RuNc(Nic)2] 22.2

Give PI (phototoxicity index) (Adherent cells (HeLa RCA. SKOV OVCAR)) of the following molecule: O.O.O.O.O=S(=O)([O-])CCc1cc[n+]([Ru-2]2([n+]3ccc(CCS(=O)(=O)[O-])cc3)[n]3c4c5ccccc5c3N=C3N=C(N=c5c6ccccc6c([n]52)=NC2=NC(=N4)c4ccccc42)c2ccccc23)cc1.[K+].[K+] [RuPc(PES)2 (Ex 2)] 1

Give PI (phototoxicity index) (Adherent cells (HeLa RCA. SKOV OVCAR)) of the following molecule: O=C(O)c1ccncc1C(=O)O.O=C(O)c1ccncc1C(=O)O.c1ccc2c(c1)C1=NC2=Nc2c3ccccc3c3[n]2[Ru][n]2c(c4ccccc4c2=NC2=NC(=N3)c3ccccc32)=N1 [RuPc(34PDCA)2] 47.6

* * *

# assayNotes: Light absorption maxima and molar extinction coefficients
# Type: physicochemical
# Protocol: Compounds according to the invention were assessed and characterised by their light absorption maxima, and their molar extinction coefficients according to conventional test procedures. Most of the compound were tested for their biological activity according to conventional test procedures in the art. […]
Threshold check on ε (molar extinction coefficient): strictly below 80000 M⁻¹ cm⁻¹ is Y; on or above 80000 M⁻¹ cm⁻¹ is N.

Hello, I'm reviewing records and need to know if ε (molar extinction coefficient) of NCCC(=O)[O-].NCCC(=O)[O-].[K+].[K+].c1ccc2cc3c(cc2c1)C1=NC2=NC(=Nc4c5cc6ccccc6cc5c5[n]4[Ru][n]4c(c6cc7ccccc7cc6c4=N5)=NC3=N1)c1cc3ccccc3cc12 is below 80000 M⁻¹ cm⁻¹. Could you check? Y

Hello, I'm reviewing records and need to know if ε (molar extinction coefficient) of O=C(O)c1cncc(C(=O)O)c1.O=C(O)c1cncc(C(=O)O)c1.c1ccc2c(c1)C1=NC2=Nc2c3ccccc3c3[n]2[Ru][n]2c(c4ccccc4c2=NC2=NC(=N3)c3ccccc32)=N1 is below 80000 M⁻¹ cm⁻¹. Could you check? Y

Hello, I'm reviewing records and need to know if ε (molar extinction coefficient) of O=C([O-])c1cccc(P(c2ccccc2)c2ccccc2)c1.[Na+].c1ccc2c(c1)C1=NC2=Nc2c3ccccc3c3[n]2[Ru][n]2c(c4ccccc4c2=NC2=NC(=N3)c3ccccc32)=N1.c1ccncc1 is below 80000 M⁻¹ cm⁻¹. Could you check? Y

Hello, I'm reviewing records and need to know if ε (molar extinction coefficient) of NCCC(=O)[O-].NCCC(=O)[O-].[K+].[K+].c1ccc2c(c1)C1=NC3=NC(=Nc4c5ccccc5c5[n]4[Ru][n]4c(c6ccccc6c4=N5)=NC2=N1)c1ccccc13 is below 80000 M⁻¹ cm⁻¹. Could you check? N

Hello, I'm reviewing records and need to know if ε (molar extinction coefficient) of O=S(=O)([O-])c1cccnc1.O=S(=O)([O-])c1cccnc1.[Na+].[Na+].c1ccc2c(c1)C1=NC2=Nc2c3ccccc3c3[n]2[Ru][n]2c(c4ccccc4c2=NC2=NC(=N3)c3ccccc32)=N1 is below 80000 M⁻¹ cm⁻¹. Could you check? N

Hello, I'm reviewing records and need to know if ε (molar extinction coefficient) of Cc1cc2c(cc1C)C1=Nc3c4cc(C)c(C)cc4c4[n]3[Ru][n]3c(c5cc(C)c(C)cc5c3=NC3=NC(=N4)c4cc(C)c(C)cc43)=NC2=N1.O=C(O)c1cncc(C(=O)O)c1.O=C(O)c1cncc(C(=O)O)c1 is below 80000 M⁻¹ cm⁻¹. Could you check? Y

Hello, I'm reviewing records and need to know if ε (molar extinction coefficient) of O=S(=O)([O-])c1cccc(P(c2ccccc2)c2ccccc2)c1.O=S(=O)([O-])c1cccc(P(c2ccccc2)c2ccccc2)c1.[K+].[K+].c1ccc2cc3c(cc2c1)C1=NC2=NC(=Nc4c5cc6ccccc6cc5c5[n]4[Ru][n]4c(c6cc7ccccc7cc6c4=N5)=NC3=N1)c1cc3ccccc3cc12 is below 80000 M⁻¹ cm⁻¹. Could you check? Y

Hello, I'm reviewing records and need to know if ε (molar extinction coefficient) of O=C(O)c1ccncc1C(=O)O.O=C(O)c1ccncc1C(=O)O.c1ccc2c(c1)C1=NC2=Nc2c3ccccc3c3[n]2[Ru][n]2c(c4ccccc4c2=NC2=NC(=N3)c3ccccc32)=N1 is below 80000 M⁻¹ cm⁻¹. Could you check? Y

Hello, I'm reviewing records and need to know if ε (molar extinction coefficient) of Fc1c(F)c(F)c2c(c1F)C1=NC2=Nc2c3c(F)c(F)c(F)c(F)c3c3[n]2[Ru][n]2c(c4c(F)c(F)c(F)c(F)c4c2=NC2=NC(=N3)c3c(F)c(F)c(F)c(F)c32)=N1.O=C(O)c1cccnc1.O=C(O)c1cccnc1 is below 80000 M⁻¹ cm⁻¹. Could you check? Y

Hello, I'm reviewing records and need to know if ε (molar extinction coefficient) of N#Cc1cccc(C(=O)O)c1.N#Cc1cccc(C(=O)O)c1.c1ccc2c(c1)C1=NC3=NC(=Nc4c5ccccc5c5[n]4[Ru][n]4c(c6ccccc6c4=N5)=NC2=N1)c1ccccc13 is below 80000 M⁻¹ cm⁻¹. Could you check? N

Hello, I'm reviewing records and need to know if ε (molar extinction coefficient) of Nc1cccc(C(=O)O)c1.Nc1cccc(C(=O)O)c1.c1ccc2c(c1)C1=NC3=NC(=Nc4c5ccccc5c5[n]4[Ru][n]4c(c6ccccc6c4=N5)=NC2=N1)c1ccccc13 is below 80000 M⁻¹ cm⁻¹. Could you check? Y

Hello, I'm reviewing records and need to know if ε (molar extinction coefficient) of O=S(=O)([O-])c1ccc[n+]([Ru-2]2([n+]3cccc(S(=O)(=O)[O-])c3)[n]3c4c5cc6ccccc6cc5c3N=C3N=C(N=c5c6cc7ccccc7cc6c([n]52)=NC2=NC(=N4)c4cc5ccccc5cc42)c2cc4ccccc4cc23)c1.[Na+].[Na+] is below 80000 M⁻¹ cm⁻¹. Could you check? N

Hello, I'm reviewing records and need to know if ε (molar extinction coefficient) of O=C(O)c1cccnc1.O=C(O)c1cccnc1.c1ccc2cc3c(cc2c1)C1=NC3=Nc2c3cc4ccccc4cc3c3[n]2[Ru][n]2c(c4cc5ccccc5cc4c2=NC2=NC(=N3)c3cc4ccccc4cc32)=N1 is below 80000 M⁻¹ cm⁻¹. Could you check? N
